Data provenance is patent US12065471B2.

- studySystem: HLA-B*44:05 (Homo sapiens, UniProt P01889, A223V/A65T/A93T/A95T/D201E/D98Y/E176V/E187L/E204Q/E69K/G107R/H137Y/K202T/L105A/L119I/N104T/N87E/Q56L/Q94N/R106L/R155S/R180D/S101N/S121R/S35A/S48T/T118I/V36M/W191S/Y91S)
- assayDetails: MHC binding assay (UV-ligand exchange, β2m ELISA, peptide exchange yield)
- runConditions: binding to HLA-B*44:05
experimentalEndpoint: Peptide exchange (MHC class I binding score, peptide exchange yield)

Take a look at these entries with their results.
| substance | measuredResult |
| --- | --- |
| 94 (SLAELIAKDW; listed as Homo sapiens) [compound 94] | ++ (>20% = ++) |
| 402 (IETSSEYFNF; listed as Homo sapiens) [compound 402] | +++ (>50 = +++) |
| 58 (KEMDPSRQSY; listed as Homo sapiens) [compound 58] | +++ (>50 = +++) |
| 369 (KELEERMLHW; listed as Homo sapiens) [compound 369] | ++++ (>75% = ++++) |

Report Peptide exchange (MHC class I binding score, peptide exchange yield) for 360 (DEMENLLTY; listed as Homo sapiens) [compound 360] please.
++++ (>75% = ++++)

Any idea what Peptide exchange (MHC class I binding score, peptide exchange yield) was measured for 131 (RESHLTEIRQY; listed as Homo sapiens) [compound 131] ?
++ (>20% = ++)

----------
- studySystem: HLA-B*44:05 (Homo sapiens, UniProt P01889, A223V/A65T/A93T/A95T/D201E/D98Y/E176V/E187L/E204Q/E69K/G107R/H137Y/K202T/L105A/L119I/N104T/N87E/Q56L/Q94N/R106L/R155S/R180D/S101N/S121R/S35A/S48T/T118I/V36M/W191S/Y91S)
- assayDetails: MHC binding assay (UV-ligand exchange, β2m ELISA, peptide exchange yield)
- runConditions: binding to HLA-B*44:05
experimentalEndpoint: Peptide exchange (MHC class I binding score, peptide exchange yield)

Sample answers from the record:
| substance | measuredResult |
| --- | --- |
| 25 (SEKEPGQQY; listed as Homo sapiens) [compound 25] | ++ (>20% = ++) |
| 98 (SEESAGPLL; listed as Homo sapiens) [compound 98] | +++ (>50 = +++) |
| 103 (AELFLTKSF; listed as Homo sapiens) [compound 103] | ++++ (>75% = ++++) |
| 416 (DELMRKESQW; listed as Homo sapiens) [compound 416] | +++ (>50 = +++) |
| 32 (REYEYDLKW; listed as Homo sapiens) [compound 32] | ++++ (>75% = ++++) |
| 30 (EEFCFSVRF; listed as Homo sapiens) [compound 30] | +++ (>50 = +++) |
| 150 (SEVFHVSEA; listed as Homo sapiens) [compound 150] | ++ (>20% = ++) |
| 274 (DEIDKLTGY; listed as Homo sapiens) [compound 274] | ++ (>20% = ++) |

Using the record for 233 (QEDKATQTL; listed as Homo sapiens) [compound 233] , report its Peptide exchange (MHC class I binding score, peptide exchange yield).
++++ (>75% = ++++)

Any idea what Peptide exchange (MHC class I binding score, peptide exchange yield) was measured for 2 (EEFLRPRSL; listed as Homo sapiens) [compound 2] ?
++ (>20% = ++)

Form field: reported Peptide exchange (MHC class I binding score, peptide exchange yield) of 183 (KEMQVTISQQL; listed as Homo sapiens) [compound 183]
++++ (>75% = ++++)

What Peptide exchange (MHC class I binding score, peptide exchange yield) value was documented for this substance, 243 (VEQINISQDW; listed as Homo sapiens) [compound 243] ?
++++ (>75% = ++++)

# get_value(readout='Peptide exchange (MHC class I binding score, peptide exchange yield)', item= 12 (KEVDPTGHSF; listed as Homo sapiens) [compound 12] )
+++ (>50 = +++)

State the recorded Peptide exchange (MHC class I binding score, peptide exchange yield) for this entry: 16 (NESDRLVYF; listed as Homo sapiens) [compound 16]
+++ (>50 = +++)

# lookup: Peptide exchange (MHC class I binding score, peptide exchange yield) of 396 (MELLFLDTF; listed as Homo sapiens) [compound 396]
++ (>20% = ++)

Given the entry 31 (MESAKETRY; listed as Homo sapiens) [compound 31] , report its measured Peptide exchange (MHC class I binding score, peptide exchange yield).
+++ (>50 = +++)

Report Peptide exchange (MHC class I binding score, peptide exchange yield) for 283 (VEEEISRHY; listed as Homo sapiens) [compound 283] please.
++ (>20% = ++)

Fill blank: measured Peptide exchange (MHC class I binding score, peptide exchange yield) of the substance 239 (DEDYTYLIL; listed as Homo sapiens) [compound 239] is ____.
++ (>20% = ++)

// returns reported Peptide exchange (MHC class I binding score, peptide exchange yield) for input 296 (AETIFIVRL; listed as Homo sapiens) [compound 296]
++ (>20% = ++)
